Entry source: paper PMC6273811

IC50 listing for selected molecules.
- System: MDA-MB-468
- experiment_summary: MTT cell proliferation assay, MDA-MB-468
- Format: cell-based
- assay_setup: Homo sapiens, 48 h, read-out: In vitro cytotoxic activity IC50, MDA-MB-48
- Method: Compounds 5a–o were evaluated for their cytotoxic activity in vitro against some human cancer cell lines, including A549, HCC1937 and MDA-MB-468 by applying a MTT colorimetric assay. Doxorubicin was used as positive control. The calculated IC50 values were reported differently according to the different cancer cells. […]
readout_name: IC50

>  <molecule>
O=C(c1ccccc1)c1cccc(NS(=O)(=O)c2ccc3c(c2)[nH]c(=O)n3Cc2ccccc2)c1 [5f]

>  <value>
82 µM

$$$$
>  <molecule>
O=c1[nH]c2cc(S(=O)(=O)NC3CCCCC3)ccc2n1CCc1ccccc1 [5k]

>  <value>
135 µM

$$$$
>  <molecule>
O=c1[nH]c2cc(S(=O)(=O)NCc3ccccc3)ccc2n1Cc1ccccc1 [5e]

>  <value>
> 200 µM

$$$$
>  <molecule>
Cc1ccccc1NS(=O)(=O)c1ccc2c(c1)[nH]c(=O)n2Cc1ccccc1 [5j]

>  <value>
> 200 µM

$$$$
>  <molecule>
O=c1[nH]c2cc(S(=O)(=O)NC3CC3)ccc2n1Cc1ccccc1 [5h]

>  <value>
> 200 µM

$$$$
>  <molecule>
O=c1[nH]c2cc(S(=O)(=O)N3CCOCC3)ccc2n1CCc1ccccc1 [5o]

>  <value>
15 µM

$$$$
>  <molecule>
CC(C)NS(=O)(=O)c1ccc2c(c1)[nH]c(=O)n2Cc1ccccc1 [5i]

>  <value>
> 200 µM

$$$$
>  <molecule>
COc1cccc2c1C(=O)c1c(O)c3c(c(O)c1C2=O)C[C@@](O)(C(=O)CO)C[C@@H]3O[C@H]1C[C@H](N)[C@H](O)[C@H](C)O1 [Doxorubicin, reference compound]

>  <value>
2.7 µM

$$$$
>  <molecule>
O=c1[nH]c2cc(S(=O)(=O)N3CCCCC3)ccc2n1Cc1ccccc1 [5d]

>  <value>
73 µM

$$$$
>  <molecule>
O=c1[nH]c2cc(S(=O)(=O)Nc3ccccc3)ccc2n1Cc1ccccc1 [5g]

>  <value>
> 200 µM

$$$$
>  <molecule>
O=c1[nH]c2cc(S(=O)(=O)N3CCOCC3)ccc2n1Cc1ccccc1 [5a]

>  <value>
9 µM

$$$$
>  <molecule>
CN1CCN(S(=O)(=O)c2ccc3c(c2)[nH]c(=O)n3CCc2ccccc2)CC1 [5l]

>  <value>
22 µM

$$$$
>  <molecule>
O=c1[nH]c2cc(S(=O)(=O)NC3CC3)ccc2n1CCc1ccccc1 [5m]

>  <value>
> 200 µM

$$$$
>  <molecule>
CN1CCN(S(=O)(=O)c2ccc3c(c2)[nH]c(=O)n3Cc2ccccc2)CC1 [5b]

>  <value>
6.3 µM

$$$$
>  <molecule>
O=c1[nH]c2cc(S(=O)(=O)N3CCCCC3)ccc2n1CCc1ccccc1 [5n]

>  <value>
12 µM

$$$$
>  <molecule>
O=c1[nH]c2cc(S(=O)(=O)NC3CCCCC3)ccc2n1Cc1ccccc1 [5c]

>  <value>
> 200 µM

$$$$

====

readout_name: melting point

>  <smiles_input>
O=c1[nH]c2cc(S(=O)(=O)NC3CCCCC3)ccc2n1CCc1ccccc1

>  <readout_name>
melting point

>  <value>
187 to 188.5 °C

$$$$
>  <smiles_input>
O=C(c1ccccc1)c1cccc(NS(=O)(=O)c2ccc3c(c2)[nH]c(=O)n3Cc2ccccc2)c1

>  <readout_name>
melting point

>  <value>
85.2 to 86.3 °C

$$$$
>  <smiles_input>
O=c1[nH]c2cc(S(=O)(=O)NC3CCCCC3)ccc2n1Cc1ccccc1

>  <readout_name>
melting point

>  <value>
166.7 to 167.2 °C

$$$$
>  <smiles_input>
O=c1[nH]c2cc(S(=O)(=O)N3CCCCC3)ccc2n1CCc1ccccc1

>  <readout_name>
melting point

>  <value>
183.3 to 184.3 °C

$$$$
>  <smiles_input>
O=c1[nH]c2cc(S(=O)(=O)Nc3ccccc3)ccc2n1Cc1ccccc1

>  <readout_name>
melting point

>  <value>
91.9 to 93.3 °C

$$$$

====

melting point listing for selected compounds.
readout_name: melting point

>  <compound>
O=c1[nH]c2cc(S(=O)(=O)NC3CC3)ccc2n1CCc1ccccc1 [5m]

>  <readout_name>
melting point

>  <value>
217.8 to 218.9 °C

$$$$
>  <compound>
O=c1[nH]c2cc(S(=O)(=O)NCc3ccccc3)ccc2n1Cc1ccccc1 [5e]

>  <readout_name>
melting point

>  <value>
160.6 to 185.9 °C

$$$$
>  <compound>
CC(C)NS(=O)(=O)c1ccc2c(c1)[nH]c(=O)n2Cc1ccccc1 [5i]

>  <readout_name>
melting point

>  <value>
173.4 to 174.7 °C

$$$$
>  <compound>
Cc1ccccc1NS(=O)(=O)c1ccc2c(c1)[nH]c(=O)n2Cc1ccccc1 [5j]

>  <readout_name>
melting point

>  <value>
223.6 to 225.7 °C

$$$$
>  <compound>
O=c1[nH]c2cc(S(=O)(=O)N3CCCCC3)ccc2n1Cc1ccccc1 [5d]

>  <readout_name>
melting point

>  <value>
189.4 to 190.5 °C

$$$$

====

>  <smiles_input>
O=c1[nH]c2cc(S(=O)(=O)NC3CC3)ccc2n1Cc1ccccc1

>  <melting point>
168.6 to 170.3 °C

$$$$
>  <smiles_input>
CN1CCN(S(=O)(=O)c2ccc3c(c2)[nH]c(=O)n3Cc2ccccc2)CC1

>  <melting point>
107.2 to 108.1 °C

$$$$
>  <smiles_input>
O=c1[nH]c2cc(S(=O)(=O)N3CCOCC3)ccc2n1Cc1ccccc1

>  <melting point>
198.5 to 200.1 °C

$$$$
>  <smiles_input>
CN1CCN(S(=O)(=O)c2ccc3c(c2)[nH]c(=O)n3CCc2ccccc2)CC1

>  <melting point>
218.2 to 219.6 °C

$$$$
>  <smiles_input>
O=c1[nH]c2cc(S(=O)(=O)N3CCOCC3)ccc2n1CCc1ccccc1

>  <melting point>
102.3 to 104.1 °C

$$$$

====

- experiment_summary: In vitro cytotoxic activity, Hek293
- Assay type: cell-based
- assay_setup: human, Hek293 cells; unit inferred
pIC50: −log10 of the molar value.
readout_name: pIC50

>  <smiles_input>
O=C(c1ccccc1)c1cccc(NS(=O)(=O)c2ccc3c(c2)[nH]c(=O)n3Cc2ccccc2)c1

>  <readout_name>
pIC50

>  <value_relation_sign>
<

>  <value>
2.00

$$$$
>  <smiles_input>
CN1CCN(S(=O)(=O)c2ccc3c(c2)[nH]c(=O)n3CCc2ccccc2)CC1

>  <readout_name>
pIC50

>  <value_relation_sign>
=

>  <value>
2.20

$$$$
>  <smiles_input>
O=c1[nH]c2cc(S(=O)(=O)NC3CCCCC3)ccc2n1Cc1ccccc1

>  <readout_name>
pIC50

>  <value_relation_sign>
=

>  <value>
3.61

$$$$
>  <smiles_input>
O=c1[nH]c2cc(S(=O)(=O)NCc3ccccc3)ccc2n1Cc1ccccc1

>  <readout_name>
pIC50

>  <value_relation_sign>
<

>  <value>
2.00

$$$$
>  <smiles_input>
O=c1[nH]c2cc(S(=O)(=O)N3CCCCC3)ccc2n1Cc1ccccc1

>  <readout_name>
pIC50

>  <value_relation_sign>
=

>  <value>
3.12

$$$$
>  <smiles_input>
O=c1[nH]c2cc(S(=O)(=O)NC3CCCCC3)ccc2n1CCc1ccccc1

>  <readout_name>
pIC50

>  <value_relation_sign>
=

>  <value>
3.42

$$$$
>  <smiles_input>
O=c1[nH]c2cc(S(=O)(=O)Nc3ccccc3)ccc2n1Cc1ccccc1

>  <readout_name>
pIC50

>  <value_relation_sign>
=

>  <value>
2.70

$$$$

====

- Test system: A549
- experiment_summary: MTT cell proliferation assay, A549
- Format: cell-based
- assay_setup: Homo sapiens, 48 h, read-out: In vitro cytotoxic activity IC50, A549
Binary label based on IC50 with cut-off 10 µM: below gives fulfilled, not below gives not fulfilled.

>  <molecule>
O=c1[nH]c2cc(S(=O)(=O)NCc3ccccc3)ccc2n1Cc1ccccc1 [5e]

>  <study_system>
A549

>  <discrete_label>
not fulfilled

$$$$
>  <molecule>
O=c1[nH]c2cc(S(=O)(=O)NC3CCCCC3)ccc2n1CCc1ccccc1 [5k]

>  <study_system>
A549

>  <discrete_label>
not fulfilled

$$$$
>  <molecule>
O=c1[nH]c2cc(S(=O)(=O)N3CCOCC3)ccc2n1CCc1ccccc1 [5o]

>  <study_system>
A549

>  <discrete_label>
fulfilled

$$$$
>  <molecule>
O=C(c1ccccc1)c1cccc(NS(=O)(=O)c2ccc3c(c2)[nH]c(=O)n3Cc2ccccc2)c1 [5f]

>  <study_system>
A549

>  <discrete_label>
not fulfilled

$$$$
>  <molecule>
CN1CCN(S(=O)(=O)c2ccc3c(c2)[nH]c(=O)n3Cc2ccccc2)CC1 [5b]

>  <study_system>
A549

>  <discrete_label>
fulfilled

$$$$
>  <molecule>
O=c1[nH]c2cc(S(=O)(=O)N3CCCCC3)ccc2n1CCc1ccccc1 [5n]

>  <study_system>
A549

>  <discrete_label>
not fulfilled

$$$$
>  <molecule>
O=c1[nH]c2cc(S(=O)(=O)N3CCCCC3)ccc2n1Cc1ccccc1 [5d]

>  <study_system>
A549

>  <discrete_label>
not fulfilled

$$$$
